Molecular target: ALK (Homo sapiens)
Construct: host or cells: baculovirus expression system
Sequence (Q9UM73 19-1620): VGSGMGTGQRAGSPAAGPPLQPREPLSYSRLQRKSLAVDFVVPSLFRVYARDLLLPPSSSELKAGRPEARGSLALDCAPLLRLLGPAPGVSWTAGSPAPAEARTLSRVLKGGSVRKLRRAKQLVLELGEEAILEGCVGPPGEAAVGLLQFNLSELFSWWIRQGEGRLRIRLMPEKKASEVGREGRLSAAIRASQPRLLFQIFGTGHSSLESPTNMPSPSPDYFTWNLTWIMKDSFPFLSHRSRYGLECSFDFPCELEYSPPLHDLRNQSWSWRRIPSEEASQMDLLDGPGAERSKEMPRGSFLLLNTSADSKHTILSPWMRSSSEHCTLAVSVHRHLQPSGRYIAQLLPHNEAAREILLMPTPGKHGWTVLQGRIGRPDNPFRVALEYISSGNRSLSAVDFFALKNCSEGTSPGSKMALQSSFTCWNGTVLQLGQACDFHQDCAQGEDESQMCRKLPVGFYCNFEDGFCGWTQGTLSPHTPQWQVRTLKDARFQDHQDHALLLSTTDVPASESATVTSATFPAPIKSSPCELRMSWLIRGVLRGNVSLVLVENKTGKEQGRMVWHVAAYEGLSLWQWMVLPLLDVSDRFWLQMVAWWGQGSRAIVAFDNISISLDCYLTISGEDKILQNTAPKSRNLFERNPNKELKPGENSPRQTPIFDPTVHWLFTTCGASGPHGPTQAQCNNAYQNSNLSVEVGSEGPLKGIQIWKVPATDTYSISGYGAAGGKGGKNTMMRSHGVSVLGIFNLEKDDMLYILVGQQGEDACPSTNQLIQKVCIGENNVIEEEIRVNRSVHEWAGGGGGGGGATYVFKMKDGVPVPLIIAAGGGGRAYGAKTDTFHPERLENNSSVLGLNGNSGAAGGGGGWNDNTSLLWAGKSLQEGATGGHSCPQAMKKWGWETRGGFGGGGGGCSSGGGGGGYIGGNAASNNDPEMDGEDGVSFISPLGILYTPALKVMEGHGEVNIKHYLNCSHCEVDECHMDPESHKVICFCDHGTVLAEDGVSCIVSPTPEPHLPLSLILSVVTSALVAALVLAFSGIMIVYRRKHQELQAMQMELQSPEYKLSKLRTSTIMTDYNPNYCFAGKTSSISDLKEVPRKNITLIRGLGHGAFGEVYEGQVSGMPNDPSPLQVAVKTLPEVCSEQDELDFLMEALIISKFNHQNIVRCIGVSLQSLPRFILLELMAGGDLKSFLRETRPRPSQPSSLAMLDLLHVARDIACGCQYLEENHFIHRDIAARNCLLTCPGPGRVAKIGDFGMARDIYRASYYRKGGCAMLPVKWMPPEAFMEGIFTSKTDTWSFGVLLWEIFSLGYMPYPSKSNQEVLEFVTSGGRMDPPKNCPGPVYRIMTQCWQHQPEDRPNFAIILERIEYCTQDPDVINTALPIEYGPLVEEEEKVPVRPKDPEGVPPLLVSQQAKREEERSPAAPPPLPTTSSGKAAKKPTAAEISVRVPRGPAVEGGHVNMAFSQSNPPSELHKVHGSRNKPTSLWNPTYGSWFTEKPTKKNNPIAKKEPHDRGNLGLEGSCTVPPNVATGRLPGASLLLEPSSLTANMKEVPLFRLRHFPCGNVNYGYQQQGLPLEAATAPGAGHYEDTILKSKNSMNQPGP
Experiment: ALK Kinase Assay (ELISA/TRF, PLC-γ substrate)
Assay type: biochemical
Conditions: ALK Kinase Inhibition; read-out: ALK Potency
Provide the reported IC50 of each item.

Would you kindly share the measured IC50 for "CN1CCN(c2ccc(Nc3ncc4ccc(-c5cccc(Cl)c5)n4n3)cc2)CC1" ?
< 100 nM

For "O=C(NCCN1CCCC1)c1ccc(-c2ccc3cnc(Nc4ccc(N5CCOCC5)cc4)nn23)cc1" , what is its reported IC50?
100 to 1000 nM

Returns the measured IC50 for the input molecule. Input: "COc1ccccc1-c1ccc2cnc(-c3nc4cc(N5CCN(C)CC5)ccc4[nH]3)nn12"
1000 to 10000 nM

Value lookup for IC50; key = "COc1ccccc1-c1ccc2cnc(Nc3cccc(N4CCN(CCO)CC4)c3)nn12"
< 100 nM

Requested read-out: IC50. Entry: "COc1cc(N2CCOCC2)ccc1Nc1ncc2cc3ccccc3n2n1"
1000 to 10000 nM

Look at this molecule and give its reported IC50. "CC1(C)C(=O)Nc2cc(Nc3ncc4ccc(-c5cccc(N6CCCS6(=O)=O)c5)n4n3)ccc21"
1000 to 10000 nM

Entry "COc1cc(Nc2ncc3ccc(-c4cccc(Cl)c4)n3n2)cc(OC)c1OC" : reported IC50 = ?
100 to 1000 nM

Consider the molecule shown here: "COc1ccccc1-c1c(Br)c(Br)c2cnc(Nc3ccc(N4CCOCC4)cc3)nn12" What is its recorded IC50?
> 10000 nM

Where do the numbers come from? From patent US8471005B2.
